Target: Polθ protein (amino acids 2-2590) (Homo sapiens)
Assay: Polθ full length enzyme potency assay (PicoGreen)
Conditions: Polθ IC50 (nM), full length N-His, C-term FLAG tagged Polθ, PicoGreen fluorescence, 12 point concentration response
property_label: IC50 (nM)

{"compound": "Cc1cc(C(F)(F)F)cc(N2C(=O)N(CC3(O)CNC3)C[C@H]2C(=O)N(C)c2ccc(F)c(Cl)c2F)n1", "readout_units": "nM", "IC50": 6}

P: Cc1cc(C(F)(F)F)cc(N2C(=O)N(CC(C)O)C[C@H]2C(=O)N(C)c2ccc(F)c(Cl)c2)n1 (stereo partly shown)
Q: Cc1cc(C(F)(F)F)c(C#N)c(N2C[C@@H](O)C[C@H]2C(=O)N(C)c2ccc(F)c(CF)c2)n1
R: CCN(C(=O)[C@@H]1COC(=O)N1c1cc(C(C)(F)F)cc(C)n1)c1ccc(F)c(Cl)c1
Ordering criterion: IC50; begin with the maximum. Lab note: record answer as labels in requested order. R, Q, P
(R: 261 nM, Q: 57 nM, P: 6 nM)

###

Molecular target: Polθ protein (amino acids 2-2590) (Homo sapiens, UniProt O75417)
Sequence (O75417 2-2590): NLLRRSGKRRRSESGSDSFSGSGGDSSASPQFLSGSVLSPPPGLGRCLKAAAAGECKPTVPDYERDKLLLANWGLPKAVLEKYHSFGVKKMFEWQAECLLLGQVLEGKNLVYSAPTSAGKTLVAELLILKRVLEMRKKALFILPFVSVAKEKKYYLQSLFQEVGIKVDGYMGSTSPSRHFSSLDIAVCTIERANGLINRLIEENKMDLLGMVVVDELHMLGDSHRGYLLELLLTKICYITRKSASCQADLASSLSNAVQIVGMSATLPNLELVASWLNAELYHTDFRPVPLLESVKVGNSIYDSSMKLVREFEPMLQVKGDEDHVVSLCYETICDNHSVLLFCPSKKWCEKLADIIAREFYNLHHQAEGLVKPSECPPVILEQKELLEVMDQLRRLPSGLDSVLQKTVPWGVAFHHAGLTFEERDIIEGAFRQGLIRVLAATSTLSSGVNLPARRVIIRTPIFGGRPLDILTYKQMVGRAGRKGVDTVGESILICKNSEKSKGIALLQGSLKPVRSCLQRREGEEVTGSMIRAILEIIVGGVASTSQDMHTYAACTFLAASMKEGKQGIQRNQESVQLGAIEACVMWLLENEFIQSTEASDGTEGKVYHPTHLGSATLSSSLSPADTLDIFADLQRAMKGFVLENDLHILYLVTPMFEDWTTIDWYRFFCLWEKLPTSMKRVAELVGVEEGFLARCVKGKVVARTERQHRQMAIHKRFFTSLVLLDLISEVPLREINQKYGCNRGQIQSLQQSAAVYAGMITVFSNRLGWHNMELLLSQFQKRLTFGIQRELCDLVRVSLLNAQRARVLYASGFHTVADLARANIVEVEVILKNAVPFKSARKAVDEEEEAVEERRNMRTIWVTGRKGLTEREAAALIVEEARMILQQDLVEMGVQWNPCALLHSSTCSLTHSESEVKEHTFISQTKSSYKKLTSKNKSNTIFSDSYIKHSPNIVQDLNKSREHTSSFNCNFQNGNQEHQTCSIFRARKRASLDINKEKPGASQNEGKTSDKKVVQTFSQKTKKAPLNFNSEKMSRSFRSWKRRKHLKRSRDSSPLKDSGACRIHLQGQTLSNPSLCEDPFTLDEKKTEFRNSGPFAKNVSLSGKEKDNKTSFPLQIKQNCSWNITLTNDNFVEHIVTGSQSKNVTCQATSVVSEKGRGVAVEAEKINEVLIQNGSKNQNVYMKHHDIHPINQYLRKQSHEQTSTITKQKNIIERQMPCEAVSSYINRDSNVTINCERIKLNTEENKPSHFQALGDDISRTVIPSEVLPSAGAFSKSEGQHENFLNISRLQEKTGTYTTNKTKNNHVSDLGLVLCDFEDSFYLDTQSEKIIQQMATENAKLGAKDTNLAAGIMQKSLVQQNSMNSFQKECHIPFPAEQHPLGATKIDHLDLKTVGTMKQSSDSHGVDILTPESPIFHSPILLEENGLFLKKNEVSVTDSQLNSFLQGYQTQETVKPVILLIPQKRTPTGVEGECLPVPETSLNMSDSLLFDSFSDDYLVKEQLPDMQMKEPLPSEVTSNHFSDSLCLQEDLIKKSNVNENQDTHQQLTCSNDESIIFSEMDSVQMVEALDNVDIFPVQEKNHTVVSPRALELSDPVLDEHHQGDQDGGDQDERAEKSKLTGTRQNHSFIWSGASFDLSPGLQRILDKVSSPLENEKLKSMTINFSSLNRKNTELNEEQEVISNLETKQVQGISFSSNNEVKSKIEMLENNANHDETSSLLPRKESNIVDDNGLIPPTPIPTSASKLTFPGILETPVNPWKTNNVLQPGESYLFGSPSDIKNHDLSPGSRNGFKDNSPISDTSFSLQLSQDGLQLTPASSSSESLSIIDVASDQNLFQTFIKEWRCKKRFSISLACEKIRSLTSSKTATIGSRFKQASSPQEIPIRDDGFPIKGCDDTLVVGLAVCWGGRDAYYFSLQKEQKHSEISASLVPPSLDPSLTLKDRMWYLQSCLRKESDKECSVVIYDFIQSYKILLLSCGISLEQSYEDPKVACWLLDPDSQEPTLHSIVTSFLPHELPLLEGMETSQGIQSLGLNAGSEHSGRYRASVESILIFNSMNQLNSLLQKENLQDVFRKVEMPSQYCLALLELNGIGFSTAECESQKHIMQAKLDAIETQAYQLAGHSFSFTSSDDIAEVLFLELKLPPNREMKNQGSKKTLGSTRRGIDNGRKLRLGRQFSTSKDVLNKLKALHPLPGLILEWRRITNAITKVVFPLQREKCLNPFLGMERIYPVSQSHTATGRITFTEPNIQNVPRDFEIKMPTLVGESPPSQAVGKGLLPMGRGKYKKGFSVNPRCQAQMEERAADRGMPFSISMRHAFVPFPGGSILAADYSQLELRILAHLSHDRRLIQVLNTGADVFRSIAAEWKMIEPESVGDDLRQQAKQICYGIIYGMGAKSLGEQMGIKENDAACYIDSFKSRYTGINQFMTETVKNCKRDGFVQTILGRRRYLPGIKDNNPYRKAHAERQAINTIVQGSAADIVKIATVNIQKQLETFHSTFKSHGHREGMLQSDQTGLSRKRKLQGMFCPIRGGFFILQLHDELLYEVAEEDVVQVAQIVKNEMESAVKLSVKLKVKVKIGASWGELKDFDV
Assay: Polθ full length enzyme potency assay (PicoGreen)
Conditions: Polθ IC50 (nM), full length N-His, C-term FLAG tagged Polθ, PicoGreen fluorescence, 12 point concentration response
property_label: IC50 (nM)

Please review the following examples before continuing.
{"compound": "CCN(C(=O)[C@@H]1C[C@H](N2CCOC(CO)C2)CN1c1nc(C)cc(C(F)(F)F)c1C#N)c1ccc(Cl)c(Cl)c1 (stereo partly drawn)", "result": 6}
{"compound": "Cc1cc(C(F)(F)F)cc(N2C(=O)N(CCCN(C)C)C[C@H]2C(=O)N(C)c2ccc(F)c(Cl)c2)n1", "result": 24}
{"compound": "Cc1cccc(N(C)C(=O)[C@@H]2[C@H](O)CCN2c2nc(C)cc(C)c2C#N)c1", "result": 32}
{"compound": "Cc1cc(C(F)(F)F)cc(N2C(=O)N(CC(O)CO)C[C@H]2C(=O)N(c2ccc(F)c(Cl)c2)C2CC2)n1 (stereo partly drawn)", "result": 94}
{"compound": "Cc1cc(C(F)(F)F)cc(N2C(=O)[C@@H](O)[C@@H](O)[C@H]2C(=O)N(C)c2ccc(F)c(C)n2)n1", "result": 193}

A: Cc1cc(C)c(C#N)c(N2C[C@@H](O)C[C@H]2C(=O)N(C)c2cccc(Cl)c2)n1
B: Cc1cc(C(F)(F)F)cc(N2C(=O)OC[C@H]2C(=O)N(C)c2ccc(F)c(C)c2)n1
Input pair: A , B . Output: entry with lower IC50. Label of pick, please. B
(B: 9 nM, A: 180 nM)

a: Cc1cc(C(F)(F)F)c(C#N)c(N2C[C@@H](O)C[C@H]2C(=O)N(C)c2ccc(F)c(C)c2)n1
b: CCN(C(=O)[C@@H]1C[C@H](N)C(=O)N1c1cc(C(F)(F)F)cc(C)n1)c1ccc(F)c(Cl)c1
Could you point out whether the larger IC50 belongs to a or to b ? Reply briefly: the label of your chosen item. b
(b: 136 nM, a: 11 nM)

P: CCc1c(F)ccc(N(C)C(=O)[C@@H]2COC(=O)N2c2cc(C(F)(F)F)cc(C)n2)c1F
Q: Cc1cc(C(F)(F)F)cc(N2C(=O)N(CCN3CCC3)C[C@H]2C(=O)N(C)c2ccc(F)c(Cl)c2F)n1
In terms of reported IC50, does P or Q have the smaller number? // caller expects the label of the chosen entry P

I: Cc1cc(C(F)(F)F)cc(N2C(=O)N(CCS(C)(=N)=O)C[C@H]2C(=O)N(C)c2ccc(F)c(Cl)c2)n1 (stereo partly drawn)
II: CN(C(=O)[C@@H]1COC(=O)N1c1cc(OC(F)F)cc(Cl)n1)c1ccc(F)c(Cl)c1
Min IC50? I | II Lab log: write the label of the selected item as the result. I
(I: 26 nM, II: 94 nM)

###

Target: Polθ protein (amino acids 2-2590) (Homo sapiens, UniProt O75417)
Assay: Polθ full length enzyme potency assay (PicoGreen)
Details: Polθ IC50 (nM), full length N-His, C-term FLAG tagged Polθ, PicoGreen fluorescence, 12 point concentration response
property_label: IC50 (nM)

Consider the following illustrative entries.
{"compound": "CCN(C(=O)[C@@H]1C[C@H](N(C)[C@@H]2CCOC[C@H]2O)CN1c1cc(C(F)(F)F)cc(C)n1)c1ccc(F)c(F)c1 [Example 139]", "tested_system": "Polθ protein (amino acids 2-2590) (Homo sapiens, UniProt O75417)", "readout_units": "nM", "IC50": 164}
{"compound": "Cc1cc(C(F)(F)F)c(C#N)c(N2CCC[C@H]2C(=O)N(C)c2ccc3c(n2)N(C)CCO3)n1 [Example 245]", "tested_system": "Polθ protein (amino acids 2-2590) (Homo sapiens, UniProt O75417)", "readout_units": "nM", "IC50": 74}
{"compound": "Cc1cc(C(F)(F)F)cc(N2C(=O)N(S(C)(=O)=O)C[C@H]2C(=O)N(C)c2ccc(F)c(Cl)c2)n1 [Example 159]", "tested_system": "Polθ protein (amino acids 2-2590) (Homo sapiens, UniProt O75417)", "readout_units": "nM", "IC50": 178}

I: CCN(C(=O)[C@@H]1C[C@H](N(C)[C@@H]2CN(C(=O)OC(C)(C)C)C[C@H]2O)CN1c1cc(C(F)(F)F)cc(C)n1)c1ccc(F)c(F)c1 (racemic) [Example 143]
II: Cc1cc(C(F)(F)F)cc(N2C(=O)N(CC3CNCCO3)C[C@H]2C(=O)N(C)c2ccc(F)c(Cl)c2F)n1 (stereo partly drawn) [Example 218]
III: CCN(C(=O)[C@@H]1C[C@H](N2CCOCC2)CN1c1nc(C)cc(C)c1C#N)c1cccc(C)c1 [Example 42]
Output the entries ranked by IC50 from maximum down to minimum. Rank the items, then write their labels in that order. I, III, II
(I: 409 nM, III: 25 nM, II: 16 nM)

###

Biological target: Polθ protein (amino acids 2-2590) (Homo sapiens, UniProt O75417)
Assay: Polθ full length enzyme potency assay (PicoGreen)
Settings: Polθ IC50 (nM), full length N-His, C-term FLAG tagged Polθ, PicoGreen fluorescence, 12 point concentration response
property_label: IC50 (nM)

{"molecule": "Cc1cc(C(F)(F)F)cc(N2C(=O)N(CC(N)=O)C[C@H]2C(=O)N(C)c2ccc(F)c(Cl)c2)n1 [Example 184]", "IC50, nM": 13}
{"molecule": "CCN(C(=O)[C@@H]1C[C@H](N(C)[C@@H]2CCC[C@H]2O)CN1c1cc(C(F)(F)F)cc(C)n1)c1ccc(F)c(F)c1 [Example 141]", "IC50, nM": 56}
{"molecule": "CCN(C(=O)[C@@H]1C[C@H](N(C)[C@H]2CN(C(=O)OC(C)(C)C)C[C@H]2O)CN1c1cc(C(F)(F)F)cc(C)n1)c1ccc(F)c(F)c1 [Example 144]", "IC50, nM": 1310}
{"molecule": "Cc1cc(C(F)(F)F)cc(N2C(=O)[C@H](O)[C@H](O)[C@H]2C(=O)N(C)c2ccc(F)c(Cl)c2)n1 [Example 72]", "IC50, nM": 32}

P: Cc1cc(C)c(C#N)c(N2C[C@@H](O)C[C@H]2C(=O)N(C)c2ccccc2)n1 [Example 7]
Q: CC(=O)N1CCN(CCN2C[C@@H](C(=O)N(C)c3ccc(F)c(Cl)c3F)N(c3cc(C(F)(F)F)cc(C)n3)C2=O)CC1 [Example 204]
R: Cc1cc(C(F)(F)F)c(C#N)c(N2C[C@@H](O)C[C@H]2C(=O)N(C)c2cc(F)cc(F)c2)n1 [Example 17]
Arrange the 3 molecules from largest to smallest IC50. I would appreciate it if you listed the labels in the requested order. P, R, Q
(P: 438 nM, R: 97 nM, Q: 3 nM)

###

Biological target: Polθ protein (amino acids 2-2590) (Homo sapiens, UniProt O75417)
Experiment: Polθ full length enzyme potency assay (PicoGreen)
Details: Polθ IC50 (nM), full length N-His, C-term FLAG tagged Polθ, PicoGreen fluorescence, 12 point concentration response
property_label: IC50 (nM)

Look over these answered cases.
{"compound": "CNc1cccc(N(C)C(=O)[C@@H]2COC(=O)N2c2cc(C(F)(F)F)cc(C)n2)n1 [Example 176]", "tested_system": "Polθ protein (amino acids 2-2590) (Homo sapiens, UniProt O75417)", "IC50 [nM]": 94}
{"compound": "CCN(C(=O)[C@@H]1C[C@H](N[C@H]2CN(C(=O)OC(C)(C)C)C[C@H]2O)CN1c1cc(C(F)(F)F)cc(C)n1)c1ccc(F)c(F)c1 [Example 136]", "tested_system": "Polθ protein (amino acids 2-2590) (Homo sapiens, UniProt O75417)", "IC50 [nM]": 45}
{"compound": "Cc1cc(C(F)(F)F)cc(N2C(=O)N(CCC(=O)N(C)C)C[C@H]2C(=O)N(C)c2ccc(F)c(Cl)c2)n1 [Example 190]", "tested_system": "Polθ protein (amino acids 2-2590) (Homo sapiens, UniProt O75417)", "IC50 [nM]": 13}
{"compound": "Cc1cc(C(F)(F)F)cc(N2C(=O)[C@@H](CO)C[C@H]2C(=O)N(C)c2ccc(F)c(Cl)c2)n1 [Example 77]", "tested_system": "Polθ protein (amino acids 2-2590) (Homo sapiens, UniProt O75417)", "IC50 [nM]": 11}
{"compound": "Cc1cc(C(F)(F)F)cc(N2C(=O)NC[C@H]2C(=O)N(C)c2ccc(F)c(Cl)c2F)n1 [Example 158]", "tested_system": "Polθ protein (amino acids 2-2590) (Homo sapiens, UniProt O75417)", "IC50 [nM]": 2}

A: Cc1cc(C(F)(F)F)cc(N2C(=O)[C@@H](CN(C)C)C[C@@H]2C(=O)N(C)c2ccc(F)c(Cl)c2)n1 (stereo in doubt) [Example 79]
B: Cc1cc(C(F)(F)F)cc(N2C(=O)[C@@H](O)[C@@H](O)[C@H]2C(=O)N(C)c2ccc(Cl)cc2F)n1 [Example 165]
Rank A against B by their IC50 values and give the higher one. Respond using the label that marks the chosen record. A
